system: human PDL1 protein (Octet assay) (human, UniProt Q9NZQ7 19-238)
Sequence (Q9NZQ7 19-238 limits assumed): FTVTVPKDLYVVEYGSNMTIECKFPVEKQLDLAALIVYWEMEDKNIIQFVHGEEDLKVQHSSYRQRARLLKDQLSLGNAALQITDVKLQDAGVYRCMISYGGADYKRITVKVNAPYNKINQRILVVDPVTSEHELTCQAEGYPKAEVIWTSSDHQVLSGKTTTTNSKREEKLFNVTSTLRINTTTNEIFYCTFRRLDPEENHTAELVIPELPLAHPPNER
measurement.protocol: Octet; antibody on sensor, PDL1 protein in solution
Description: The Anti-PDL1/SIRPα bispecific protein were characterized for binding affinity against human PDL1 using Octet assay (ForeBio) according to manufacturer's manual, separately. Briefly, the antibodies were coupled on sensors and then the sensors were dipped into PDL1 protein gradients (start at 200 nM, with 2-fold dilution and totally 8 doses). Their binding responses were measured in real-time and results were fit globally.
property: koff (s⁻¹)
Give just the numeric value; s⁻¹ need not be written.

[in] Tell me the measured koff of Anti-PDL1/SIRPα bispecific antibody ES019-079 (bispecific antibody, not shown: CL; linker and Fc; CH1) light: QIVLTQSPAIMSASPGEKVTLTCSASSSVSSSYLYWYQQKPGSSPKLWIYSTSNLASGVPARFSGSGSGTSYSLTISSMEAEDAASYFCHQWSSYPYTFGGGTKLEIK heavy (part 1 of 2): EVQLVESGGGLVQAGGSLRLSCAASGFTFSSHAMSWVRQAPGKGLEWVSDIDTSGTTTDYADSVKGRFTISRDNAKNTLYLQMNSLKPEDTAVYYCAKGPREATDIRSWGQGTQVTVSS heavy (part 2 of 2): GGGGSGGGGSGGGGSEVQLQQSGAELVKPGASVKLSCTASGFNIKDYYMHWVKQRTEQGLEWIGRIDPEDGETKYAPKFQGKATITADTSSNTAYLQLSSLTSEDTAVYYCDRGLAYWGQGTLVTVSA , please.
[out] 2.85e-05

[in] Report koff for Anti-PDL1 antibody C71 (antibody, V domains shown, Heavy chain antibody (single domain variable region); also called Anti-PDL1, C71) VH: EVQVVESGGGLVQSGGSLKLSCAGSGFTESAGFMVWHRQVPGKERELVALIATPSGSTNYADSVKGRFTISRDNGKNTVYLQMNSLKPEDTAVYYCNIRGYWGQGTLVTVSS please.
[out] 0.00501

[in] koff lookup needed for Anti-PDL1 antibody C570 (antibody, V domains shown, Heavy chain antibody; also called Anti-PDL1, C570) VH: EVQLVESGGGLVQAGGSLRLSCAASGFTFSSHAMSWVRQAPGKGLEWVSDIDTSGTTTDYADSVKGRFTISRDNAKNTLYLQMNSLKPEDTAVYYCAKGPREATDIRSWGQGTQVTVSS , thanks.
[out] 0.000306

[in] Requested field: koff. Item: Anti-PDL1/SIRPα bispecific antibody ES019-026 (bispecific antibody, not shown: small tags and cut ends; a dimerising Fc or GST) light (part 1 of 2): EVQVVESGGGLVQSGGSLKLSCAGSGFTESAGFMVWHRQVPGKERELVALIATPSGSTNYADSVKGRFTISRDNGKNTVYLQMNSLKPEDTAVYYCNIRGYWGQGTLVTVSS light (part 2 of 2): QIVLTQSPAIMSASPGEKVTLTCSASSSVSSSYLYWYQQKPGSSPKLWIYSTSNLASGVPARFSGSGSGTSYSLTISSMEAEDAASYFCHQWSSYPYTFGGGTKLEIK heavy: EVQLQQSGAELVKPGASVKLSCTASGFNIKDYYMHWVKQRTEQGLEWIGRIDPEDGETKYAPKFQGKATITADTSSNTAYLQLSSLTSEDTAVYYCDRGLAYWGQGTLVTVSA
[out] 0.00639
